Reference for the values: paper PMC3973022

CC50 at 24 h values by entry
ASSAY EXPLANATION: Cytotoxicity by dye-uptake (neutral red) assay
APPLIED CONDITIONS: African green monkey
Write it as a number; the unit µg/mL goes unstated.

>>> test_result("NC(=O)c1ncn([C@@H]2O[C@H](CO)[C@@H](O)[C@H]2O)n1 [Ribavirin, reference compound]")
523
>>> test_result("O=c1c(O)c(-c2ccc(O)c(O)c2)oc2cc(O)cc(O)c12 [Quercetin, quercetin]")
941
>>> test_result("O=c1c(OC2OCC(O)C(O)C2O)c(-c2ccc(O)c(O)c2)oc2cc(O)cc(O)c12 (stereo not drawn) [Guaijaverin, quercetin-3-O-α-arabinoside]")
795

# input Specify CC50 at 24 h for C[C@@H]1O[C@@H](Oc2c(-c3ccc(O)c(O)c3)oc3cc(O)cc(O)c3c2=O)[C@H](O)[C@H](O)[C@H]1O [Quercitrin, quercetin-3-O-α-rhamnoside] and stop.
# output 411
